As shown below, each of these compounds has a reported melting point value.
All answers are understood in °C, so give the number only.

# COMPOUND, ENDPOINT_NAME, MEASUREMENT
data = [
    ("CCN1CCCC1CNC(=O)c1cc(S(=O)(=O)CC)c(N)cc1OC (stereo unspecified)", "melting point", 126),
    ("NNC=O", "melting point", 55),
    ("O=C1c2ccccc2C(=O)C1c1ccc(F)cc1", "melting point", 120),
    ("COc1ccccc1OC", "melting point", 22.5),
    ("C=CCSCC=C", "melting point", -85),
    ("CCCCCCCCCCCCCCCCCCCCCCCCCCO", "melting point", 80),
]

Asked: Query: melting point; subject: CNC(=O)Oc1ccc(C)c(C)c1
Given back: 79.5

Asked: What value of measured melting point is listed for CC(=O)Nc1ccc(N)cc1 ?
Given back: 166

* * *

Listed below: log10 biodegradation half-life (days) values for each entry.

Consider the following illustrative entries.
# COMPOUND, ENDPOINT_NAME, MEASUREMENT
records = [
    ("Cc1ccc2ccc3cccc4ccc1c2c34", "log10 biodegradation half-life (days)", 1.96),
    ("c1ccccc1", "log10 biodegradation half-life (days)", 0.778),
    ("CC(C)C(C)C(C)C", "log10 biodegradation half-life (days)", 1.18),
    ("CC1CCCC1C (stereo unspecified)", "log10 biodegradation half-life (days)", 0.602),
    ("CCCCCCC", "log10 biodegradation half-life (days)", 0.845),
]

Asked: Which log10 biodegradation half-life (days) is reported for this compound? CCC(C)(C)C
Given back: 1.28

Asked: Which value of log10 biodegradation half-life (days) has been reported for CCCCCCCCCCCCCCCCCCCCCC in the records?
Given back: 2.1

Asked: I have this compound here, c1ccc2cc3c(ccc4ccccc43)cc2c1 , and I need its recorded log10 biodegradation half-life (days).
Given back: 2.46

Asked: Report log10 biodegradation half-life (days) for C1=Cc2cccc3cccc1c23 please.
Given back: 1.58

Asked: Reported log10 biodegradation half-life (days), compound c1ccc2c(c1)c1ccccc1c1ccccc21 : ____
Given back: 2.58

Asked: Form field: reported log10 biodegradation half-life (days) of c1ccc2c(c1)-c1cccc3c1c-2cc1ccccc13
Given back: 2.45

Asked: I'd like to know its log10 biodegradation half-life (days). The compound in question is CCC(CC)C(C)C
Given back: 0.778

Asked: log10 biodegradation half-life (days) lookup needed for CCCCCCCCCCCCCCCCCCCCCCCCCCC , thanks.
Given back: 2.15

Asked: Record request: log10 biodegradation half-life (days) value, item Cc1ccc2ccccc2c1
Given back: 1.15

Asked: What does the record list as log10 biodegradation half-life (days) for Cc1ccc2c(c1)CCC2 ?
Given back: 0.301

Asked: Tell me the measured log10 biodegradation half-life (days) of CCCCCCCCCCCCCCCCCCCCCCCCCCCCCCCC , please.
Given back: 2.45

Asked: What value of log10 biodegradation half-life (days) has been recorded for this entry: CCC(C)C(C)C (stereo unspecified)
Given back: 0.845

Asked: Would you kindly share the measured log10 biodegradation half-life (days) for CCCCCCCCCCCCC ?
Given back: 1.08

Asked: Name the recorded log10 biodegradation half-life (days) for Cc1cccc2c1CCC2 .
Given back: 0.301

Asked: Look up log10 biodegradation half-life (days) for this compound: CCc1ccc(C)c(C)c1
Given back: 0.699

Asked: Quick one: log10 biodegradation half-life (days) of Cc1ccc(C)c2ccccc12 ?
Given back: 1.18

Measured values drawn from the OPERA property sets (Mansouri et al. 2018) for this set.
